Tested on: MDR P. aeruginosa PA253
assay name: microbe, parasite or virus in culture
Format: cell-based, Pseudomonas aeruginosa
condition notes: MDR PA253, 18 h
Peptide text beside a SMILES is read from it.
recorded endpoint: MIC against MDR isolates of PA, PA253 (µM)

* CC[C@H](C)[C@H](NC(=O)[C@H](CCCNC(=N)N)NC(=O)[C@H](Cc1c[nH]c2ccccc12)NC(=O)[C@H](CCCNC(=N)N)NC(=O)[C@@H](N)CCCNC(=N)N)C(=O)N[C@H](C(=O)N[C@H](C(=O)N[C@H](C(=O)N[C@@H](CCCNC(=N)N)C(=O)N[C@H](C(=O)N[C@@H](CCCNC(=N)N)C(=O)N[C@@H](CCCNC(=N)N)C(N)=O)C(C)C)[C@@H](C)CC)C(C)C)C(C)C [Sub 3] (H-RRWRIVVIRVRR-NH2) | 8
